Values were extracted from patent US9789095B2.

assay: Aqueous solubility in PBS by optical absorbance of a saturated solution; type: physicochemical; details: aqueous buffer, thermodynamic from solid
ATTRIBUTE MEASURED: solubility

# input # query: solubility of entry CC(C)(C)C1CCc2c(sc(NC(=O)c3ccco3)c2C(=O)O)C1 (stereo not shown)
# output > 500 µM
